Molecular target: T1, MBP-STF full length (STENOFOLIA) (Medicago truncatula, UniProt G0ZGT3 1-358)
T1 sequence: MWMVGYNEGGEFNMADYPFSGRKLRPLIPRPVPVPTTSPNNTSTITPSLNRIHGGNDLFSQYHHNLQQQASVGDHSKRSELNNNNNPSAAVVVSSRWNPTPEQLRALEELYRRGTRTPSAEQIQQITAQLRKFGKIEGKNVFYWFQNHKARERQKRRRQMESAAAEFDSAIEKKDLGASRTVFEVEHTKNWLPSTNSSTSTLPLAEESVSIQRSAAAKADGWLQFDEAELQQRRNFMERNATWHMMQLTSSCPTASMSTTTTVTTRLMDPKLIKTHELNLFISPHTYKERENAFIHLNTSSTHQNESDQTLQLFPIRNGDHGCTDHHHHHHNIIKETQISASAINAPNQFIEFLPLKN
Test: EMSA; 10 mM Tris pH 7.5, 50 mM KCl, 1 mM DTT, 2.5% glycerol, 0.05% NP-40, 5 mM MgCl2, 0.5 mM EDTA, 5 ng/uL poly(dI.dC), 1 ug protein, 100 fmol probe, room temperature 40 min
Conditions: protein: recombinant; tags: MBP (N-terminal, pMAL-c2X); label: 3' biotin; blunt
measured.property: binding result

binder	observed
TaACC-D1 probe (dsDNA) DNA 1: TTCTTCCAGGTGAATACACCACAGTAGTAATATGGCATAATCTGACAAGATGAATCTCCTCATCGACCCATCCTTAATGTTGATTTGCTCTCTCTCTGTTTTCGGCGGTGCGTGCAGGTTCTGGACCACGGCATCTC DNA 2: GAGATGCCGTGGTCCAGAACCTGCACGCACCGCCGAAAACAGAGAGAGAGCAAATCAACATTAAGGATGGGTCGATGAGGAGATTCATCTTGTCAGATTATGCCATATTACTACTGTGGTGTATTCACCTGGAAGAA	binds

Numbers sourced from paper PMC5785358.
